# System: HOP-62 NSCLC
# Protocol notes: NCI tumour cell line growth inhibition, 48 h
Quantity name: TGI

TGI for CC1(C)CC(=O)C(CC2C(=O)CCCC2=O)C(=O)C1 is > 100 µM

Measured TGI of CC1=C(CCC(C)CO)O[C@H]2C[C@H]3[C@@H]4CC[C@H]5C[C@@H](O)CC[C@]5(C)[C@H]4CC(=O)[C@]3(C)[C@@H]12 (some centres undefined) : 38.3 µM

// field: TGI; key: Cc1ccc(C)n1-c1ccccc1C1C=Cn2c(=O)oc3c(OC(C)C)c(OC(C)C)c(O)c1c32 (centres undefined) ; value = > 100 µM

Measured TGI, Nc1nc(-c2ccc3c(c2)/C(=C\c2cc(Br)c(O)c(Br)c2)C(=O)N3)cs1 : > 25 µM

Value of measured TGI for the entry CCOP(=O)(OCC)/C(=C/n1c(=S)[nH]c2ccccc21)C(=O)OC : > 100 µM

Summary for this compound, CN(C)C(=O)N1N[C@H](c2ccccc2)[C@@H]1c1ccccc1 : TGI is > 100 µM

Sample COc1cc(C2c3cccc4cccc(c34)C3CCC(=O)N32)cc(OC)c1O (centres undefined) ; TGI observed: > 50 µM

Record summary for CC(=O)NC1C(OCc2ccccc2)OC(CO)C(O)C1OC(C)C(=O)NC(C(=O)NC(CCC(=O)NCCCNc1ccc([N+](=O)[O-])c2[nH]c3ccccc3c(=O)c12)C(N)=O)C(C)C (centres undefined) : reported TGI = > 100 µM

Documented TGI of NC(=O)NNC/C(Cl)=C(\Cl)C(=O)O : > 100 µM

====

# Test system: HCT-116 colon
# Protocol notes: NCI tumour cell line growth inhibition, 48 h
Give GI50 for every item shown.

Entry COc1ccc2c3ccnc(C(F)(F)F)c3n(CCCCN)c2c1 — recorded GI50 = 3.84 µM

# molecule C[C@@H]1CC[C@@H]2[C@@H]1[C@H](OC(=O)/C=C/C1CCCCC1)[C@]1(C3CCCCC3)C[C@@H](OC(=O)CO)[C@@]2(C)O1 ; its GI50 = 13.5 µM

Form: molecule = CCN1CCN(c2ccc(NC(=O)Nc3nc4ccc(-c5ccccc5OC)cc4s3)cc2)CC1 ; GI50 = 1.58 µM

====

# Tested on: UACC-62 melanoma
# Protocol notes: NCI tumour cell line growth inhibition, 48 h
Quantity name: TGI

Input N#C/C(=C\c1ccc[nH]1)c1cc(-c2ccc(Cl)cc2)nn1-c1ccccc1 . Output TGI: 28.2 µM

What the record says about N=c1ncn(C/C=C/c2ccccc2)c2nc[nH]c12 : TGI is > 100 µM

Please fill in: TGI reported for O=C(O)C(Cc1ccccc1)Cc1ccccc1 = > 100 µM

get_value(item= CCCN=C1NC(C)=CSC(Nc2ccccc2)=C1C#N , readout=TGI) returns > 100 µM

Notebook: O=C1c2ccccc2C(=O)N1CC#CCO , TGI read as > 100 µM

Entry O=C1Sc2ccccc2C(=O)N2CCSC12 (stereo unspecified) ; TGI = > 100 µM

Looking up CCOC(=O)c1nc2ccccc2nc1Nc1ccc(C(=O)OC)s1 , I see its TGI listed as > 100 µM

In plain terms, CC(=O)/C=C(/C)[O-].CC(=O)/C=C(/C)[O-].CC(=O)[CH-]C(C)=O.CC(=O)[CH-]C(C)=O.[Zr+4] has a documented TGI of > 100 µM

Reported TGI ( O=[N+]([O-])c1c(O)c2nonc2c2nn(-c3ccccc3)nc12 ) = > 100 µM

For reference, reported TGI for NC(=O)NNC/C(Cl)=C(\Cl)C(=O)O stands at > 100 µM

Just so you know, measured TGI for CCN1CCN(c2ccc(NC(=O)Nc3nc4ccc(-c5ccccc5OC)cc4s3)cc2)CC1 came out at 3.45 µM

====

# Test system: EKVX NSCLC
# Protocol notes: NCI tumour cell line growth inhibition, 48 h
I'd be grateful if you could share measured TGI for these entries.

Record Cc1cc(-c2ccccc2)nc(Nc2cc3ccccc3[nH]2)n1 has EKVX NSCLC TGI equal to > 100 µM

Tested on EKVX NSCLC, the item CC(=O)C1=C(C)N(Cc2ccccc2)C2(O)C=CC(=O)C3=C(O)c4ccccc4C(=O)C312 (stereo not given) showed TGI equal to 33.8 µM

Entry O=S(=O)(O)c1ccc(O)c(N=Nc2c(O)ccc3ccccc23)c1 , tested on EKVX NSCLC, has a reported TGI of > 100 µM

Observed TGI, EKVX NSCLC, Cc1cc(I)cc(CN(C)CCCN2CCC(C)CC2)c1O : 31 µM

Per the reported EKVX NSCLC data, COC(=O)CC[C@@H](C)[C@H]1CC[C@H]2[C@@H]3CC[C@@H]4C[C@H](O)CC[C@]4(C)[C@H]3CC[C@]12C has TGI of 35.6 µM

====

# Tested on: SNB-19 CNS
# Protocol notes: NCI tumour cell line growth inhibition, 48 h; in the data active = GI50 below about 0.43 µM; inactive = the rest
Select the correct class. Options are active, inactive and nothing else.

Request: Dear colleague, could you share the recorded outcome for CC(C)[C@@H](C(=O)O[C@@H]1/C=C/C(=O)O[C@@H](C)CCC/C=C/[C@@H]2C[C@H](O)C[C@H]21)N(C)C when you have a moment?
Response: inactive

Request: Record lookup: outcome of this test for O=C1C=CC2C3C(=O)N(c4ccccc4)C(=O)C3C1N2Cc1ccccc1 (stereo not given) ?
Response: inactive

Request: State the result this test recorded for Cc1nnc(N/N=C/c2ccc([N+](=O)[O-])o2)[nH]c1=O .
Response: inactive

Request: For Cc1cc(OCc2ccc(C(F)(F)F)cc2)c2c(c1)C(=O)C=C(NCCN1CCCC1)C2=O , what call appears in the results of this test?
Response: inactive

Request: Hello, I am checking results. What call was entered for NS(=O)(=O)c1ccc(-n2nc3c(c2-c2cccs2)Cc2ccccc2-3)cc1 ?
Response: inactive

Request: What call does the record list for COc1cccc(N2CC(O)=C(c3nc4ccccc4s3)C2=N)c1 ?
Response: inactive

Request: State the result this test recorded for CCN1CCN(C(=O)[C@]23CC[C@@H](C)[C@H](C)[C@@H]2C2=CC[C@@H]4[C@@]5(C)CCC(=O)C(C)(C)[C@@H]5CC[C@@]4(C)[C@]2(C)CC3)CC1 .
Response: inactive

Request: Could you please tell me the result logged for COc1cc2ncnc(Oc3ccc(NC(=O)Nc4ccc(CN5CCOCC5)c(C(F)(F)F)c4)c4ccccc34)c2cc1OC in this assay?
Response: inactive

Request: Query: recorded result category for Clc1cnc(Nc2ccc(OCCN3CCCC3)cc2)nc1NCc1ccco1 in this test
Response: inactive

Request: Per the records of this test, what outcome belongs to Cc1[nH]nc(C(F)(F)F)c1Cc1sc2c(c1C(=O)N1C[C@](C)(O)CO1)c(=O)n(C)c(=O)n2C(C)C ?
Response: inactive

Request: // param item: N#C/C(=C\c1ccc[nH]1)c1cc(-c2ccc(Cl)cc2)nn1-c1ccccc1 ; yields the recorded call
Response: inactive

Request: Give the logged outcome of this assay for the following compound: c1ccc2c(N=NSc3ncnc4nc[nH]c34)c3ccccc3nc2c1
Response: inactive

Request: Kindly provide the recorded test outcome for the following compound: O=C1/C=C/[C@@H](O)[C@@H]2C[C@@H](O)C[C@H]2/C=C/CCC[C@H](CCO)O1
Response: active

Request: Tell me the assay call for CN1CCN(Cc2ccc(NC(=O)c3cncc(C#Cc4ccc(N)nc4)c3)cc2C(F)(F)F)CC1 please.
Response: inactive

Request: What classification did CN(C(=O)C(C)(C)C)c1ccccc1I(=O)=O end up with in this test?
Response: inactive

Request: Please state the recorded outcome for this compound: COc1nn(C)cc1Nc1nccc(-c2c[nH]c3c(NC(=O)[C@@H](C)N4CCN(C)CC4)cccc23)n1
Response: inactive

Request: Please indicate how the test categorized Cc1ccsc1C(NC(=O)c1ccccc1)c1cc(Cl)c2cccnc2c1O (stereo not given) .
Response: active

Request: So what was the verdict on CCN1CCN(c2ccc(NC(=O)Nc3nc4ccc(-c5ccccc5OC)cc4s3)cc2)CC1 in this test?
Response: inactive

Request: Can you look up the reported call for Cc1ccc2sc3c(NCCCN)nc4ccccc4c3c(=O)c2c1 for me?
Response: inactive

Request: Any idea what this test logged for COc1ccc2c3ccnc(C(F)(F)F)c3n(CCCCN)c2c1 ?
Response: inactive

====

Exercise: state measured TGI for each of the compounds provided.
# Tested on: LOX IMVI melanoma
# Protocol notes: NCI tumour cell line growth inhibition, 48 h
Where a SMILES comes first, the peptide text is derived from it. [ ]: non-standard residue; d: D form.

Query NS(=O)(=O)c1nnc(NS(=O)(=O)c2cccc3cccnc23)s1 yields TGI of > 100 µM

Record CC(C)C[C@H](NC(=O)[C@H](CC(C)C)NC(=O)[C@@H](Cc1c[nH]c2ccccc12)NC(=O)[C@H](Cc1ccccc1)NC(=O)[C@@H](Cc1c[nH]c2ccccc12)NC(=O)[C@H](CCC(N)=O)NC(=O)[C@@H](CCC(N)=O)NC(=O)[C@@H]1CCCN1C(=O)[C@@H](CCCCN)NC(=O)[C@H]1CCCN1C(=O)[C@H](N)CCCN=C(N)N)C(N)=O (H-[dR][dP][dK]P[dQ]Q[dW]F[dW]LL-NH2) . Reported TGI: > 100 µM

Briefly, TGI measured for N=C(N)SCc1nc(-c2ccc(Cl)cc2)no1 : 31.2 µM

Reference source: PubChem BioAssay (NCI)
